From: patent EP3177737B1

target: T1, human melanocortin 1 receptor (human, UniProt Q01726 1-317); assay: competition with [125I]-NDP-alpha-MSH on A375 human melanoma cells
T1 construct: whole, on cells; also called hMC1R; hMC1 receptor
T1 sequence (Q01726 whole entry): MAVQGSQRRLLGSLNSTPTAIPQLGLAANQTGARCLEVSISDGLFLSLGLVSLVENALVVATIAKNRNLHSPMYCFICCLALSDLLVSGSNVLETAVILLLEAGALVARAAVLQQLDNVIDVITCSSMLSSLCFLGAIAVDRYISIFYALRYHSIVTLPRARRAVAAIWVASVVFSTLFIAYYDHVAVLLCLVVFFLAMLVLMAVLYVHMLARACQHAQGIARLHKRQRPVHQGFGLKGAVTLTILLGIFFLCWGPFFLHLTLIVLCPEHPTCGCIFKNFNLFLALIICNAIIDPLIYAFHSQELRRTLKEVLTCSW
value type: pIC50
Formally, pIC50 is defined as -log10 of the concentration c, with c in mol/L.

pIC50 recorded for this binder, LDHXRWK (N-terminal acetyl; Nle at 4; D-Nal(2') (nal) at 7; Asp5-Lys10 side-chain lactam ring; C-terminal amide; backbone N-methyl on His6 and Arg8 (alpha-MSH numbering 4-10)) [Peptide 15: Ac-Nle-c[Asp-(NMe)His-nal-(NMe)Arg-Trp-Lys]-NH2] , is 7.83
